Source: paper PMC8765781

Measured AC50 accompanies every entry in the list below.
# Test system: wild-type ZIKV (Ugandan MR766 strain) in Vero cells
# assayName: ZIKV cytopathic effect (CPE) inhibition qHTS assay, CellTiter-Glo readout
# Format: cell-based, Zika virus
# assayConditions: Zika virus, Vero, read-out: Log AC50 (M) (converted)
observationType: AC50 (M)

compound: C=C1/C(=C/C=C2\CCC[C@]3(C)[C@@H]([C@H](C)/C=C/[C@@H](C)C(C)C)CC[C@@H]23)C[C@@H](O)C[C@@H]1O [NCGC00386145-01]
assaySystem: wild-type ZIKV (Ugandan MR766 strain) in Vero cells
observationType: AC50
observed: 6.51e-05
//
compound: COc1cc(Nc2nc3ccccc3nc2N[S+](=O)([O-])c2ccc(NC(=O)c3ccc(C)c(OC)c3)cc2)cc(OC)c1 [NCGC00346541-08]
assaySystem: wild-type ZIKV (Ugandan MR766 strain) in Vero cells
observationType: AC50
observed: 5.8e-05
//
compound: Cc1cc(C(=O)Nc2cc(Nc3ccc4c(/C=C/c5ccccn5)[nH]nc4c3)ccc2F)n(C)n1 [NCGC00387023-01]
assaySystem: wild-type ZIKV (Ugandan MR766 strain) in Vero cells
observationType: AC50
observed: 3.66e-05
